Tested on: Sindbis virus TE/5'2J-GFP
experimentNotes: percent infected (GFP+ in RFP+ ISG-expressing cells); higher = more infection (less antiviral activity)
measurementConditions: experiment: confirmatory screen 3; BHK/NZAP-Zeo (ZAP)
measurementType: percent infected (%)
Form entry: value (%) — number only.

# count of solved cases: 2
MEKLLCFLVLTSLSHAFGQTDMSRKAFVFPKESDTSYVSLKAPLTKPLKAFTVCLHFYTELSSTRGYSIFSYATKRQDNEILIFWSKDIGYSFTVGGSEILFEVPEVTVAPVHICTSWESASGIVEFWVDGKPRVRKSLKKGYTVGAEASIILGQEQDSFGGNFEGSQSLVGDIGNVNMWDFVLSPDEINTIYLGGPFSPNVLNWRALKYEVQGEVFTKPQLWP [CRP]	92.7
MEQHFLGCVKRAWDSAEVAPEPQPPPIVSSEDRGPWPLPLYPVLGEYSLDSCDLGLLSSPCWRLPGVYWQNGLSPGVQSTLEPSTAKPTEFSWPGTQKQQEAPVEEVGQAEEPDRLRLQQLPWSSPLHPWDRQQDTEVCDSGCLLERRHPPALQPWRHLPGFSDCLEWILRVGFAAFSVLWACCSRICGAKQP [C5orf39]	50.1

Pending sequence:
Find the recorded percent infected belonging to MHQSLTQQRSSDMSLPDSMGAFNRRKRNSIYVTVTLLIVSVLILTVGLAATTRTQNVTVGGYYPGVILGFGSFLGIIGSNLIENKRQMLVASIVFISFGVIAAFCCAIVDGVFAARHIDLKPLYANRCHYVPKTSQKEAEEVISSSTKNSPSTRVMRNLTQAAREVNCPHLSREFCTPRIRGNTCFCCDLYNCGNRVEITGGYYEYIDVSSCQDIIHLYHLLWSATILNIVGLFLGIITAAVLGGFKDMNPTLPALNCSVENTHPTVSYYAHPQVASYNTYYHSPPHLPPYSAYDFQHSGVFPSSPPSGLSDEPQSASPSPSYMWSSSAPPRYSPPYYPPFEKPPPYSP [FAM70A] and report it.
94

---

Test system: Sindbis virus TE/5'2J-GFP
experimentNotes: percent infected (GFP+ in RFP+ ISG-expressing cells); higher = more infection (less antiviral activity)
measurementConditions: experiment: confirmatory screen 1; BHK/NZAP-Zeo (ZAP)
# percent infected per entry
Form entry: value (%) — number only.

# count of solved cases: 3
MSIMDHSPTTGVVTVIVILIAIAALGALILGCWCYLRLQRISQSEDEESIVGDGETKEPFLLVQYSAKGPCVERKAKLMTPNGPEVHG [SNN]	86.5
MASGRARCTRKLRNWVVEQVESGQFPGVCWDDTAKTMFRIPWKHAGKQDFREDQDAAFFKAWAIFKGKYKEGDTGGPAVWKTRLRCALNKSSEFKEVPERGRMDVAEPYKVYQLLPPGIVSGQPGTQKVPSKRQHSSVSSERKEEEDAMQNCTLSPSVLQDSLNNEEEGASGGAVHSDIGSSSSSSSPEPQEVTDTTEAPFQGDQRSLEFLLPPEPDYSLLLTFIYNGRVVGEAQVQSLDCRLVAEPSGSESSMEQVLFPKPGPLEPTQRLLSQLERGILVASNPRGLFVQRLCPIPISWNAPQAPPGPGPHLLPSNECVELFRTAYFCRDLVRYFQGLGPPPKFQVTLNFWEESHGSSHTPQNLITVKMEQAFARYLLEQTPEQQAAILSLV [IRF9]	77.9
MLTELEKALNSIIDVYHKYSLIKGNFHAVYRDDLKKLLETECPQYIRKKGADVWFKELDINTDGAVNFQEFLILVIKMGVAAHKKSHEESHKE [S100A8]	54.4

State its percent infected on Sindbis virus TE/5'2J-GFP: MFAKGKGSAVPSDGQAREKLALYVYEYLLHVGAQKSAQTFLSEIRWEKNITLGEPPGFLHSWWCVFWDLYCAAPERRDTCEHSSEAKAFHDYSAAAAPSPVLGNIPPNDGMPGGPIPPGFFQGPPGSQPSPHAQPPPHNPSSMMGPHSQPFMSPRYAGGPRPPIRMGNQPPGGVPGTQPLLPNSMDPTRQQGHPNMGGSMQRMNPPRGMGPMGPGPQNYGSGMRPPPNSLGPAMPGINMGPGAGRPWPNPNSANSIPYSSSSPGTYVGPPGGGGPPGTPIMPSPADSTNSSDNIYTMINPVPPGGSRSNFPMGPGSDGPMGGMGGMEPHHMNGSLGSGDIDGLPKNSPNNISGISNPPGTPRDDGELGGNFLHSFQNDNYSPSMTMSV [SSBP3]
3.95

// query: MSSENCFVAENSSLHPESGQENDATSPHFSTRHEGSFQVPVLCAVMNVVFITILIIALIALSVGQYNCPGQYTFSMPSDSHVSSCSEDWVGYQRKCYFISTVKRSWTSAQNACSEHGATLAVIDSEKDMNFLKRYAGREEHWVGLKKEPGHPWKWSNGKEFNNWFNVTGSDKCVFLKNTEVSSMECEKNLYWICNKPYK [CD69]
68.2

// query: MGAQLCFEANAKAPREALRFHAEAKGAQVRLDTRGCIAHRRTTFHDGIVFSQRPVRLGERVALRVLREESGWCGGLRVGFTRLDPACVSVPSLPPFLCPDLEEQSPTWAAVLPEGCALTGDLVRFWVDRRGCLFAKVNAGCRLLLREGVPVGAPLWAVMDVYGTTKAIELLDPTASRLPTPMPWDLSNKAVPEPKATPGEECAICFYHAANTRLVPCGHTYFCRYCAWRVFSDTAKCPVCRWQIEAVAPAQGPPALRVEEGS [LINCR]
85

---

System: Sindbis virus TE/5'2J-GFP
experimentNotes: percent infected (GFP+ in RFP+ ISG-expressing cells); higher = more infection (less antiviral activity)
measurementConditions: experiment: confirmatory screen 2; BHK/HA-Zeo (control)
measurementType: percent infected (%)
Form entry: value (%) — number only.

Find the recorded percent infected belonging to MALLLALSLLVLWTSPAPTLSGTNDAEDCCLSVTQKPIPGYIVRNFHYLLIKDGCRVPAVVFTTLRGRQLCAPPDQPWVERIIQRLQRTSAKMKRRSS [CCL19] and report it.
95.5

// query: MASVIPASNRSMRSDRNTYVGKRFVHVKNPYLDLMDEDILYHLDLGTKTHNLPAMFGDVKFVCVGGSPNRMKAFALFMHKELGFEEAEEDIKDICAGTDRYCMYKTGPVLAISHGMGIPSISIMLHELIKLLHHARCCDVTIIRIGTSGGIGIAPGTVVITDIAVDSFFKPRFEQVILDNIVTRSTELDKELSEELFNCSKEIPNFPTLVGHTMCTYDFYEGQGRLDGALCSFSREKKLDYLKRAFKAGVRNIEMESTVFAAMCGLCGLKAAVVCVTLLDRLDCDQINLPHDVLVEYQQRPQLLISNFIRRRLGLCD [UPP2]
89.8

// query: MAGIELERCQQQANEVTEIMRNNFGKVLERGVKLAELQQRSDQLLDMSSTFNKTTQNLAQKKCWENIRYRICVGLVVVGVLLIILIVLLVVFLPQSSDSSSAPRTQDAGIASGPGN [VAMP5]
96.6

// query: MRSARSTALNRGEQRAVRYYSHMKLNMAEEEDYMSDSFINVQEDIRPGLPMLRQIREARRKEEKQQEANLKNRQKSLKEEEQERRDIGLKNALGCENKGFALLQKMGYKSGQALGKSGGGIVEPIPLNIKTGKSGIGHEASLKRKAEEKLESYRKKIHMKNQAEEKAAEQFRMRLKNKQDEMKLEGDLRRSQRACQQLDVQKNIQVPREAWYWLRLEEETEEDEEEKEQDEDEYKSEDLSVLEKLQILTSYLREEHLYCIWCGTAYEDKEDLSSNCPGPTSADHD [CCDC75]
96

// query: MSSWSRQRPKSPGGIQPHVSRTLFLLLLLAASAWGVTLSPKDCQVFRSDHGSSISCQPPAEIPGYLPADTVHLAVEFFNLTHLPANLLQGASKLQELHLSSNGLESLSPEFLRPVPQLRVLDLTRNALTGLPPGLFQASATLDTLVLKENQLEVLEVSWLHGLKALGHLDLSGNRLRKLPPGLLANFTLLRTLDLGENQLETLPPDLLRGPLQLERLHLEGNKLQVLGKDLLLPQPDLRYLFLNGNKLARVAAGAFQGLRQLDMLDLSNNSLASVPEGLWASLGQPNWDMRDGFDISGNPWICDQNLSDLYRWLQAQKDKMFSQNDTRCAGPEAVKGQTLLAVAKSQ [LRG1]
95.1

// query: MRSRLLLSVAHLPTIRETTEEMLLGGPGQEPPPSPSLDDYVRSISRLAQPTSVLDKATAQGQPRPPHRPAQACRKGRPAVSLRDITARFSGQQPTLPMADTVDPLDWLFGESQEKQPSQRDLPRRTGPSAGLWGPHRQMDSSKPMGAPRGRLCEARMPGHSLARPPQDGQQSSDLRSWTFGQSAQAMASRHRPRPSSVLRTLYSHLPVIHEL [C10orf10]
95.2

---

System: Sindbis virus TE/5'2J-GFP;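 further: Interferon-defective BHK-21 derivatives, ZAP line overexpressing the rat ZAP N-terminal zinc finger domain fused to Zeocin resistance, GFP scored within live singlet TagRFP+ cells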
experimentNotes: percent infected (GFP+ in RFP+ ISG-expressing cells); higher = more infection (less antiviral activity)
measurementConditions: experiment: confirmatory screen 3; BHK/HA-Zeo (control)
measurementType: percent infected (%)
Form entry: value (%) — number only.

MPITRMRMRPWLEMQINSNQIPGLIWINKEEMIFQIPWKHAAKHGWDINKDACLFRSWAIHTGRYKAGEKEPDPKTWKANFRCAMNSLPDIEEVKDQSRNKGSSAVRVYRMLPPLTKNQRKERKSKSSRDAKSKAKRKSCGDSSPDTFSDGLSSSTLPDDHSSYTVPGYMQDLEVEQALTPALSPCAVSSTLPDWHIPVEVVPDSTSDLYNFQVSPMPSTSEATTDEDEEGKLPEDIMKLLEQSEWQPTNVDGKGYLLNEPGVQPTSVYGDFSCKEEPEIDSPGGDIGLSLQRVFTDLKNMDATWLDSLLTPVRLPSIQAIPCAP [IRF1]	29.2
MAGIELERCQQQANEVTEIMRNNFGKVLERGVKLAELQQRSDQLLDMSSTFNKTTQNLAQKKCWENIRYRICVGLVVVGVLLIILIVLLVVFLPQSSDSSSAPRTQDAGIASGPGN [VAMP5]	93.9
MASGRARCTRKLRNWVVEQVESGQFPGVCWDDTAKTMFRIPWKHAGKQDFREDQDAAFFKAWAIFKGKYKEGDTGGPAVWKTRLRCALNKSSEFKEVPERGRMDVAEPYKVYQLLPPGIVSGQPGTQKVPSKRQHSSVSSERKEEEDAMQNCTLSPSVLQDSLNNEEEGASGGAVHSDIGSSSSSSSPEPQEVTDTTEAPFQGDQRSLEFLLPPEPDYSLLLTFIYNGRVVGEAQVQSLDCRLVAEPSGSESSMEQVLFPKPGPLEPTQRLLSQLERGILVASNPRGLFVQRLCPIPISWNAPQAPPGPGPHLLPSNECVELFRTAYFCRDLVRYFQGLGPPPKFQVTLNFWEESHGSSHTPQNLITVKMEQAFARYLLEQTPEQQAAILSLV [IRF9]	94.3
MNTRNRVVNSGLGASPASRPTRDPQDPSGRQGELSPVEDQREGLEAAPKGPSRESVVHAGQRRTSAYTLIAPNINRRNEIQRIAEQELANLEKWKEQNRAKPVHLVPRRLGGSQSETEVRQKQQLQLMQSKYKQKLKREESVRIKKEAEEAELQKMKAIQREKSNKLEEKKRLQENLRREAFREHQQYKTAEFLSKLNTESPDRSACQSAVCGPQSSTWKLPILPRDHSWARSWAYRDSLKAEENRKLQKMKDEQHQKSELLELKRQQQEQERAKIHQTEHRRVNNAFLDRLQGKSQPGGLEQSGGCWNMNSGNSWGI [EPSTI1]	94.9
MEQHFLGCVKRAWDSAEVAPEPQPPPIVSSEDRGPWPLPLYPVLGEYSLDSCDLGLLSSPCWRLPGVYWQNGLSPGVQSTLEPSTAKPTEFSWPGTQKQQEAPVEEVGQAEEPDRLRLQQLPWSSPLHPWDRQQDTEVCDSGCLLERRHPPALQPWRHLPGFSDCLEWILRVGFAAFSVLWACCSRICGAKQP [C5orf39]	75.4

Pending sequence:
Find the recorded percent infected belonging to MSSAIERKSLDPSEEPVDEVLQIPPSLLTCGGCQQNIGDRYFLKAIDQYWHEDCLSCDLCGCRLGEVGRRLYYKLGRKLCRRDYLRLFGQDGLCASCDKRIRAYEMTMRVKDKVYHLECFKCAACQKHFCVGDRYLLINSDIVCEQDIYEWTKINGMI [LMO2] and report it.
92.7
